Reported MIC values follow for various molecules
- Test system: Streptococcus pyogenes MH-771
- protocol.summary: antimicrobial activity, broth dilution method
- Format: cell-based
- details: Streptococcus pyogenes, MH771, Streptococcus pyogenes MH-771, drug-resistant clinical isolate; read-out: minimum inhibitory concentration (MIC)
Express your answer in mg/L, writing the number without its unit.

Below, 6 molecules whose answers are already recorded.
CCC1OC(=O)CC(OC(C)=O)C(C)C(OC2OC(C)C(OC3CC(C)(O)C(OC(=O)Cc4cccc5ccccc45)C(C)O3)C(N(C)C)C2O)C(CC=O)CC(C)C(=O)C=CC(C)=CC1COC1OC(C)C(O)C(OC)C1OC (stereo not shown) ... 25
CCC1OC(=O)CC(OC(C)=O)C(C)C(OC2OC(C)C(OC3CC(C)(O)C(OC(=O)CN(C(C)=O)c4ccccc4)C(C)O3)C(N(C)C)C2O)C(CC=O)CC(C)C(=O)C=CC(C)=CC1COC1OC(C)C(O)C(OC)C1OC (stereo not shown) ... 12.5
CCC1OC(=O)CC(O)C(C)C(OC2OC(C)C(OC3CC(C)(O)C(OC(=O)CCC4CCCCC4)C(C)O3)C(N(C)C)C2O)C(CC=O)CC(C)C(=O)C=CC(C)=CC1COC1OC(C)C(O)C(OC)C1OC (stereo not shown) ... 6.25
CCC1OC(=O)CC(OC(C)=O)C(C)C(OC2OC(C)C(OC3CC(C)(O)C(OC(=O)C(Cc4ccc(OC(C)=O)cc4)OC(C)=O)C(C)O3)C(N(C)C)C2O)C(CC=O)CC(C)C(=O)C=CC(C)=CC1COC1OC(C)C(O)C(OC)C1OC (stereo not shown) ... 25
CCC1OC(=O)CC(OC(C)=O)C(C)C(OC2OC(C)C(OC3CC(C)(O)C(OC(=O)C(OC(C)=O)c4ccc(OC(C)=O)cc4)C(C)O3)C(N(C)C)C2O)C(CC=O)CC(C)C(=O)C=CC(C)=CC1COC1OC(C)C(O)C(OC)C1OC (stereo not shown) ... 12.5
CCCC(C)C(=O)OC1C(C)OC(OC2C(C)OC(OC3C(CC=O)CC(C)C(=O)C=CC(C)=CC(COC4OC(C)C(O)C(OC)C4OC)C(CC)OC(=O)CC(O)C3C)C(O)C2N(C)C)CC1(C)O (stereo not shown) ... 6.25

Here is the next item to consider.
Can you share its MIC? I mean this molecule: CCC1OC(=O)CC(OC(C)=O)C(C)C(OC2OC(C)C(OC3CC(C)(O)C(OC(=O)CCc4ccccc4)C(C)O3)C(N(C)C)C2O)C(CC=O)CC(C)C(=O)C=CC(C)=CC1COC1OC(C)C(O)C(OC)C1OC (stereo not shown) 25

Data origin: patent US4205163A
